Cited source for all entries: patent US20220089521A1

# Tested on: Mycobacterium tuberculosis standard strain H37Rv
# test.details: Microplate Alamar Blue Assay (MABA), minimum inhibitory concentration
# Assay type: cell-based
# study.conditions: Mycobacterium tuberculosis, H37RV
Measured MIC, listed per entry.

Value of MIC reported for the compound CC(C)=CCC/C(C)=C/CN(CCN(C(=O)c1c[nH]c2ccccc12)C1C2CC3CC(C2)CC1C3)C(=O)c1c[nH]c2ccccc12 (stereo not shown) is > 32 µg/mL

Value of MIC reported for the compound CC(C)=CCC/C(C)=C/CNCC(=O)NC1C2CC3CC(C2)CC1C3.Cl (stereo not shown) is < 0.5 µg/mL

Value of MIC reported for the compound CC(C)=CCC/C(C)=C/CN(CCN)C1C2CC3CC(C2)CC1C3 (stereo not shown) is < 0.5 µg/mL

Value of MIC reported for the compound CC(C)=CCC/C(C)=C/CN(CCNC1C2CC3CC(C2)CC1C3)C(=O)/C=C(\C)CCC=C(C)C (stereo not shown) is > 32 µg/mL
